Below, each entry is listed alongside its reported kinase still bound, per cent of control.
Biological target: STK33 (human) (UniProt Q9BYT3)
Sequence (Q9BYT3 whole entry, looked up): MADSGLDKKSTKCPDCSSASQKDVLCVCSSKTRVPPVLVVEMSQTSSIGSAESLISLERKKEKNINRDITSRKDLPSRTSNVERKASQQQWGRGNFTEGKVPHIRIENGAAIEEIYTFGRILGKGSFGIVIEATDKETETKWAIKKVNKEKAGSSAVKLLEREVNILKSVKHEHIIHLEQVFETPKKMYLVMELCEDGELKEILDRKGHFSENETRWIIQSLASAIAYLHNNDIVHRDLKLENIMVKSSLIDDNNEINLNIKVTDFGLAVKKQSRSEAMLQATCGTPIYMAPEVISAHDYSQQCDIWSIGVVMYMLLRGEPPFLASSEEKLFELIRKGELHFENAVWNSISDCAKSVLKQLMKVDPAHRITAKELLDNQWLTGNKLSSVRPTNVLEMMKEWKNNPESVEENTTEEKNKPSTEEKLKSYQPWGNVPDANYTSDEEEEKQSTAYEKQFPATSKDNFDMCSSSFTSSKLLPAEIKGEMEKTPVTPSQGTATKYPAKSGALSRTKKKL
Experiment: KINOMEscan competition binding
Conditions: compound 10.0 µM
Number in %, nothing else.

Examples with their reported kinase still bound, per cent of control follow.
compound: C=CC(=O)Nc1ccc(C(=O)c2sc(Nc3ccc(N4CCN(C)CC4)cc3OC)nc2N)cc1
scale unit: %
kinase still bound, per cent of control: 39
--
compound: O=c1[nH]c2ccccc2n1C1CCN(Cc2ccc(-c3nc4cc5[nH]cnc5cc4nc3-c3ccccc3)cc2)CC1
scale unit: %
kinase still bound, per cent of control: 100
--
compound: CC1=C(C(=O)Nc2cc3cn[nH]c3cc2F)C(c2ccc(C(F)(F)F)cc2)CC(=O)N1 (stereo not drawn)
scale unit: %
kinase still bound, per cent of control: 36
--
compound: CCN1CCN(Cc2ccc(NC(=O)c3ccc(C)c(/C=C/c4cnc5[nH]ccc5c4OC)c3)cc2C(F)(F)F)CC1
scale unit: %
kinase still bound, per cent of control: 31
--
compound: COc1cc(N2CCC(C(N)=O)CC2)ccc1Nc1nc(N)c(Cl)c(Nc2ccccc2S(=O)(=O)C(C)C)n1
scale unit: %
kinase still bound, per cent of control: 4.5

Any idea what kinase still bound, per cent of control came out for CCc1nc(-c2cccc(C)c2)c(-c2ccnc(NC(=O)c3ccccc3)c2)s1 on STK33 (human) (UniProt Q9BYT3)? 97

Any idea what kinase still bound, per cent of control came out for COc1cc(C)c(Sc2cnc(NC(=O)c3ccc(CNC(C)C(C)C)cc3)s2)cc1C(=O)N1CCN(C(C)=O)CC1 (stereo not drawn) on STK33 (human) (UniProt Q9BYT3)? 7

Any idea what kinase still bound, per cent of control came out for CNC(=O)Nc1ccc(-c2nc(N3CC4CCC(C3)O4)c3cnn(C4CCC5(CC4)OCCO5)c3n2)cc1 on STK33 (human) (UniProt Q9BYT3)? 82

###

Biological target: CDK2 (human)
Assay: KINOMEscan competition binding
Settings: compound 10.0 µM
readout name: kinase still bound, per cent of control (%)
Number in %, nothing else.

compound: CC(=O)c1c(C)c2cnc(Nc3ccc(N4CCNCC4)cn3)nc2n(C2CCCC2)c1=O
kinase still bound, per cent of control / %: 20

compound: COc1ccc(N(C(=O)Oc2cc(C(=O)Nc3cccc(C(F)(F)F)c3)ccc2C)c2ccnc(Nc3ccc(N4CCN(C)CC4)cc3)n2)c(OC)c1
kinase still bound, per cent of control / %: 100

Any idea what kinase still bound, per cent of control came out for CCc1nc(-c2cccc(C)c2)c(-c2ccnc(NC(=O)c3ccccc3)c2)s1 on CDK2 (human)? 100

Any idea what kinase still bound, per cent of control came out for CCCS(=O)(=O)Nc1ccc(F)c(C(=O)c2c[nH]c3ncc(Cl)cc23)c1F on CDK2 (human)? 78

Any idea what kinase still bound, per cent of control came out for COc1cc(N2CCC(C(N)=O)CC2)ccc1Nc1nc(N)c(Cl)c(Nc2ccccc2S(=O)(=O)C(C)C)n1 on CDK2 (human)? 100

Any idea what kinase still bound, per cent of control came out for CC1=C(C(=O)Nc2cc3cn[nH]c3cc2F)C(c2ccc(C(F)(F)F)cc2)CC(=O)N1 (stereo not drawn) on CDK2 (human)? 79

Any idea what kinase still bound, per cent of control came out for COc1cc2c(Nc3ccc(NC(=O)c4ccccc4)cc3)ncnc2cc1OCCCN1CCOCC1 on CDK2 (human)? 82

Any idea what kinase still bound, per cent of control came out for CNC(=O)Nc1ccc(-c2nc(N3CC4CCC(C3)O4)c3cnn(C4CCC5(CC4)OCCO5)c3n2)cc1 on CDK2 (human)? 92

Any idea what kinase still bound, per cent of control came out for CCN1CCN(Cc2ccc(NC(=O)c3ccc(C)c(/C=C/c4cnc5[nH]ccc5c4OC)c3)cc2C(F)(F)F)CC1 on CDK2 (human)? 96

###

Molecular target: MAP3K13 (human)
Assay: KINOMEscan competition binding
Conditions: compound 10.0 µM
readout name: kinase still bound, per cent of control (%)
Number in %, nothing else.

Examples with their reported kinase still bound, per cent of control follow.
compound: CC1=C(C(=O)Nc2cc3cn[nH]c3cc2F)C(c2ccc(C(F)(F)F)cc2)CC(=O)N1 (stereo unspecified)
test target: MAP3K13 (human)
kinase still bound, per cent of control / %: 83

compound: COc1cc2c(Nc3ccc(NC(=O)c4ccccc4)cc3)ncnc2cc1OCCCN1CCOCC1
test target: MAP3K13 (human)
kinase still bound, per cent of control / %: 27

compound: CCN(CCO)CCCOc1ccc2c(Nc3cc(CC(=O)Nc4cccc(F)c4)[nH]n3)ncnc2c1
test target: MAP3K13 (human)
kinase still bound, per cent of control / %: 100

compound: N#Cc1cc(-c2ccnc(Nc3ccc(-n4cnc(-c5cccnc5)n4)cc3)n2)cc(N2CCOCC2)c1
test target: MAP3K13 (human)
kinase still bound, per cent of control / %: 100

compound: Cc1cn(-c2cc(C(=O)Nc3ccc(C)c(NC(=O)c4ccno4)c3)cc(C(F)(F)F)c2)cn1
test target: MAP3K13 (human)
kinase still bound, per cent of control / %: 100

Any idea what kinase still bound, per cent of control came out for O=c1[nH]c2ccccc2n1C1CCN(Cc2ccc(-c3nc4cc5[nH]cnc5cc4nc3-c3ccccc3)cc2)CC1 on MAP3K13 (human)? 100

###

Target: MAPK15 (human) (UniProt Q8TD08)
Sequence (Q8TD08 whole entry, looked up): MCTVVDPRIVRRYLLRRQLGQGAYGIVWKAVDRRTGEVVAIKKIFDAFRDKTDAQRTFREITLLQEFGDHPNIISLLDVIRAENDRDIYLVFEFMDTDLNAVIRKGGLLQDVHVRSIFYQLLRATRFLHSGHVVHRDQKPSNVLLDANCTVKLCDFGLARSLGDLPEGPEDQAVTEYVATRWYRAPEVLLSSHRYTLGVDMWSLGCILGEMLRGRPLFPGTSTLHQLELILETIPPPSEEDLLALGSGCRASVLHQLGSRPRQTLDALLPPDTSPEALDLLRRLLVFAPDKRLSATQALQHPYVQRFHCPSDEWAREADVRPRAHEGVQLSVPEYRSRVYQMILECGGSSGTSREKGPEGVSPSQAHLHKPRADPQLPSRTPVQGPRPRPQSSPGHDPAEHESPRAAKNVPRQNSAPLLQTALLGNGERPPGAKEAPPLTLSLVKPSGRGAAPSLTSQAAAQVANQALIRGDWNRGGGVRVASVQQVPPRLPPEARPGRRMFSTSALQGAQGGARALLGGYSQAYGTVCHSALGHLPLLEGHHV
Assay: KINOMEscan competition binding
Settings: compound 10.0 µM
Output Criterion met for records whose kinase still bound, per cent of control is lower than 70%, Criterion not met for records at or above 70%.

Take the molecule CNC(=O)Nc1ccc(-c2nc(N3CC4CCC(C3)O4)c3cnn(C4CCC5(CC4)OCCO5)c3n2)cc1 and say whether its kinase still bound, per cent of control is less than 70%. Criterion met

Take the molecule CCN(CCO)CCCOc1ccc2c(Nc3cc(CC(=O)Nc4cccc(F)c4)[nH]n3)ncnc2c1 and say whether its kinase still bound, per cent of control is less than 70%. Criterion not met

Take the molecule COc1cc(N2CCC(C(N)=O)CC2)ccc1Nc1nc(N)c(Cl)c(Nc2ccccc2S(=O)(=O)C(C)C)n1 and say whether its kinase still bound, per cent of control is less than 70%. Criterion not met

Take the molecule N#C/C(=C1/Nc2ccccc2S1)c1ccnc(NCCc2cccnc2)n1 and say whether its kinase still bound, per cent of control is less than 70%. Criterion not met

Take the molecule COc1ccc(N(C(=O)Oc2cc(C(=O)Nc3cccc(C(F)(F)F)c3)ccc2C)c2ccnc(Nc3ccc(N4CCN(C)CC4)cc3)n2)c(OC)c1 and say whether its kinase still bound, per cent of control is less than 70%. Criterion not met

Take the molecule CC1=C(C(=O)Nc2cc3cn[nH]c3cc2F)C(c2ccc(C(F)(F)F)cc2)CC(=O)N1 (stereo not drawn) and say whether its kinase still bound, per cent of control is less than 70%. Criterion not met

Take the molecule CC(=O)c1c(C)c2cnc(Nc3ccc(N4CCNCC4)cn3)nc2n(C2CCCC2)c1=O and say whether its kinase still bound, per cent of control is less than 70%. Criterion met

Take the molecule CCN1CCN(Cc2ccc(NC(=O)c3ccc(C)c(/C=C/c4cnc5[nH]ccc5c4OC)c3)cc2C(F)(F)F)CC1 and say whether its kinase still bound, per cent of control is less than 70%. Criterion met

###

Target: MAP3K3 (human) (UniProt Q99759)
Sequence (Q99759 whole entry, looked up): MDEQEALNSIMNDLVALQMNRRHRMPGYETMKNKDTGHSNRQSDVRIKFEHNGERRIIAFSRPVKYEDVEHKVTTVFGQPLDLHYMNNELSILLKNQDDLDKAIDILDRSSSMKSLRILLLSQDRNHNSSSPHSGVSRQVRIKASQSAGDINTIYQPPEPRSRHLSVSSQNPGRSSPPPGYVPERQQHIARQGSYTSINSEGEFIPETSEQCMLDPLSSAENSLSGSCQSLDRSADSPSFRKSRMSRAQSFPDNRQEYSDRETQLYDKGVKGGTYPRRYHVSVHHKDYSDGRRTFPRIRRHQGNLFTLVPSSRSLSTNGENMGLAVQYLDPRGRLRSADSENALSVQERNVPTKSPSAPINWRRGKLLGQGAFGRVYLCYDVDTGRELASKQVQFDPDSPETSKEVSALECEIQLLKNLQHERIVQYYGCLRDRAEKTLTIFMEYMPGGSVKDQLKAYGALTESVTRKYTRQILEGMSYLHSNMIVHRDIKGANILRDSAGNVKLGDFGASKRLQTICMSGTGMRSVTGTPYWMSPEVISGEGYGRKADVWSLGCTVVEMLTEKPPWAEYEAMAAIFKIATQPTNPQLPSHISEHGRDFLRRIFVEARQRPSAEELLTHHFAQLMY
Test: KINOMEscan competition binding
Conditions: compound 10.0 µM
readout name: kinase still bound, per cent of control (%)
Number in %, nothing else.

Examples with their reported kinase still bound, per cent of control follow.
compound: CCOc1cc(N2CCC(O)CC2)ccc1Nc1ncc2c(n1)N(C)c1ccccc1C(=O)N2C
test target: MAP3K3 (human) (UniProt Q99759)
kinase still bound, per cent of control (%): 100
//
compound: CC1=C(C(=O)Nc2cc3cn[nH]c3cc2F)C(c2ccc(C(F)(F)F)cc2)CC(=O)N1 (configuration not stated)
test target: MAP3K3 (human) (UniProt Q99759)
kinase still bound, per cent of control (%): 82
//
compound: COc1cc(N2CCC(C(N)=O)CC2)ccc1Nc1nc(N)c(Cl)c(Nc2ccccc2S(=O)(=O)C(C)C)n1
test target: MAP3K3 (human) (UniProt Q99759)
kinase still bound, per cent of control (%): 100
//
compound: COc1cc2ncnc(Nc3cccc(Cl)c3)c2cc1OC
test target: MAP3K3 (human) (UniProt Q99759)
kinase still bound, per cent of control (%): 6.6
//
compound: O=c1[nH]c2ccccc2n1C1CCN(Cc2ccc(-c3nc4cc5[nH]cnc5cc4nc3-c3ccccc3)cc2)CC1
test target: MAP3K3 (human) (UniProt Q99759)
kinase still bound, per cent of control (%): 83

What measured kinase still bound, per cent of control goes with COc1cc(C)c(Sc2cnc(NC(=O)c3ccc(CNC(C)C(C)C)cc3)s2)cc1C(=O)N1CCN(C(C)=O)CC1 (configuration not stated) ? 100

What measured kinase still bound, per cent of control goes with N#C/C(=C1/Nc2ccccc2S1)c1ccnc(NCCc2cccnc2)n1 ? 74

What measured kinase still bound, per cent of control goes with CCN1CCN(Cc2ccc(NC(=O)c3ccc(C)c(/C=C/c4cnc5[nH]ccc5c4OC)c3)cc2C(F)(F)F)CC1 ? 1.4

What measured kinase still bound, per cent of control goes with CNC(=O)Nc1ccc(-c2nc(N3CC4CCC(C3)O4)c3cnn(C4CCC5(CC4)OCCO5)c3n2)cc1 ? 100

What measured kinase still bound, per cent of control goes with COc1cc2c(Nc3ccc(NC(=O)c4ccccc4)cc3)ncnc2cc1OCCCN1CCOCC1 ? 18

What measured kinase still bound, per cent of control goes with CC(=O)c1c(C)c2cnc(Nc3ccc(N4CCNCC4)cn3)nc2n(C2CCCC2)c1=O ? 4.2

What measured kinase still bound, per cent of control goes with C=CC(=O)Nc1ccc(C(=O)c2sc(Nc3ccc(N4CCN(C)CC4)cc3OC)nc2N)cc1 ? 65
